# System: THRa:RXRa (NR concentration 90 nM, RXRa partner concentration 90 nM)
# Procedure Details: PBM binding z-score (relative to random genomic background probes); higher = stronger binding; sequences stand for … in GC…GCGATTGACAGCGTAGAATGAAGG
Catalogue of PBM binding z-score readings, one per entry.
# answer = number (no unit)

# example entries with known answers
{"Primary Sequence": "GTACTAAGGTGAATAGGTCGTTGATGAGTAGGCG", "Tested On": "THRa:RXRa (NR concentration 90 nM, RXRa partner concentration 90 nM)", "PBM binding z-score": 3.11}
{"Primary Sequence": "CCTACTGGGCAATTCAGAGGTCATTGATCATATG", "Tested On": "THRa:RXRa (NR concentration 90 nM, RXRa partner concentration 90 nM)", "PBM binding z-score": 2.98}
{"Primary Sequence": "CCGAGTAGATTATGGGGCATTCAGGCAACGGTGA", "Tested On": "THRa:RXRa (NR concentration 90 nM, RXRa partner concentration 90 nM)", "PBM binding z-score": 0.271}

The sequence listed as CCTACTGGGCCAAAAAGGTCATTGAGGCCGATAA shows PBM binding z-score equal to 3.4

----------
# System: FXR:RXRa (NR concentration 270 nM, RXRa partner concentration 90 nM)
# Procedure Details: PBM binding z-score (relative to random genomic background probes); higher = stronger binding; sequences stand for … in GC…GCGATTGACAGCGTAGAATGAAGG
Documented PBM binding z-score across a set of sequences
The answer should be written as a number, with no unit following it.

Some sequences with recorded PBM binding z-score:
{"Primary Sequence": "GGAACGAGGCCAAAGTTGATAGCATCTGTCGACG", "PBM binding z-score": 0.0318}
{"Primary Sequence": "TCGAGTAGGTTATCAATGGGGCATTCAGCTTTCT", "PBM binding z-score": 0.264}

# ---- query sequence ----
Quick note, PBM binding z-score for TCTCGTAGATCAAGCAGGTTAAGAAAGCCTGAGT landed at -0.462

----------
Measured PBM binding z-score by item
# Tested on: LXRa:RXRa (NR concentration 270 nM, RXRa partner concentration 90 nM)
# Procedure Details: PBM binding z-score (relative to random genomic background probes); higher = stronger binding; sequences stand for … in GC…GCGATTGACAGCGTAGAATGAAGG
Number only, please.

{"Primary Sequence": "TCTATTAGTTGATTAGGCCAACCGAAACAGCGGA", "Parameter Measured": "PBM binding z-score", "Value": 0.591}
{"Primary Sequence": "CATACTAGGTCAAGGTCAAAGTCGGTTTGTGCCA", "Parameter Measured": "PBM binding z-score", "Value": 5.81}

# evaluate next
# sequence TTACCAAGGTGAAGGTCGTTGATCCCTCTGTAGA ; its PBM binding z-score = 2.03

----------
# System: PPARa:RXRa (NR concentration 270 nM, RXRa partner concentration 90 nM)
# Procedure Details: PBM binding z-score (relative to random genomic background probes); higher = stronger binding; sequences stand for … in GC…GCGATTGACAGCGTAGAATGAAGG
Each entry gets class 0 if its PBM binding z-score stays under 0.8, and class 1 if its PBM binding z-score is 0.8 or above.

{"Primary Sequence": "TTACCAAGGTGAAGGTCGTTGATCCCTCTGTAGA", "Tested On": "PPARa:RXRa (NR concentration 270 nM, RXRa partner concentration 90 nM)", "Classification": "class 1"}
{"Primary Sequence": "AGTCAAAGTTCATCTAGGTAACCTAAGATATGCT", "Tested On": "PPARa:RXRa (NR concentration 270 nM, RXRa partner concentration 90 nM)", "Classification": "class 1"}
{"Primary Sequence": "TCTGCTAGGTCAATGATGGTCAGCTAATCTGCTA", "Tested On": "PPARa:RXRa (NR concentration 270 nM, RXRa partner concentration 90 nM)", "Classification": "class 1"}

Task: # bool: PBM binding z-score of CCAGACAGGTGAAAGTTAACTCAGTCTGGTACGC >= 0.8
Result: class 1

Task: Check if PBM binding z-score >= 0.8 (inclusive). Item: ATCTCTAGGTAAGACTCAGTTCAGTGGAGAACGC
Result: class 0
